Assay: NCI Yeast Anticancer Drug Screen. Data for the rad50 strain (AID 155);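 note: 0% = growth of vehicle-only cultures of the same strain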
Conditions: S. cerevisiae rad50 strain growth inhibition; at 50.0 µM; stronger effect = higher value
This is part of a sample that, as a whole, favours compounds with a hit. Of some 79,000 tested, about 15% had one in any assay. Calls of active or inactive are those of the source. Cut-off read from the data, not from the text of the source: active = growth inhibition above about 70%; inactive = the rest.
Reported growth inhibition is given for each of the following compounds.

Worked examples follow.
CC1=CC(=O)C=CC1(C)C(Cl)(Cl)Cl (centres undefined)    -3.05% (inactive)
CN(C)c1ccc(/C=C/c2cc[n+](C)c(/C=C/c3ccc(N(C)C)cc3)c2)cc1    91% (active)
CN(C)c1ccc(C(=C2C=CC(=[N+](C)C)C=C2)c2ccc(N(C)C)cc2)cc1    94.9% (active)

Could you now look at the following compound, please?
## Task Return the recorded growth inhibition value; entry: `CCCCCCCCCCCCCCCCCC1=NCCCN1CCO`
## Result 96.8% (active)
